# Tested on: MKN45
# PROCEDURE_DETAILS: Inhibition of cell viability (MTS), MKN45
# Format: cell-based
# MEASUREMENT_CONTEXT: Homo sapiens, MKN-45, 96 h, MKN45 cells, 96 hours incubation
# Protocol: Cells were maintained at 37° C. in a humidified atmosphere containing 5%-8% CO2 following the instructions of the supplier (American Type Culture Collection (Rockville, Md.)). Inhibition of cell viability was determined for a panel of tumor cell lines (MKN45, EBC1 and A549), using the soluble tetrazolium salt, MTS (Promega, Madison, Wis.). […] EC50 values may be calculated by non-linear curve fitting of the compound concentrations and fluorescence intensities to the standard EC50 equation.
REPORTED_PROPERTY: EC50

Recorded EC50 for CC(c1ccc2nc(NC(=O)C3CC3)cn2n1)c1nnc2ccc(-c3ccc(C(N)=O)cc3)cn12 (centres unmarked) , please?
100 to 249 nM

Then this molecule: COc1ccc(-c2ccc3nnc(C(C)c4ccc5nc(NC(=O)C6CC6)cn5n4)n3c2)cc1 (centres unmarked)
< 30 nM

Then this molecule: `O=C(Nc1cn2nc(C(F)(F)c3nnc4ccc(-c5cccc(F)c5)cn34)ccc2n1)C1CC1`
< 30 nM

Then this molecule: `O=C(Nc1cn2nc(Cn3nnc4ccc(-c5cnn(C[C@@H](O)CO)c5)cc43)ccc2n1)C1CC1`
250 to 630 nM

Then this molecule: `Cc1ccc2nnn(Cc3ccc4nc(NC(=O)C5CC5)cn4n3)c2c1`
> 630 nM

Then this molecule: `COCCOc1ccc(-c2ccc3nnc(C(F)(F)c4ccc5nc(NC(=O)C6CC6)cn5n4)n3c2)cc1`
< 30 nM

Then this molecule: `O=C(Nc1cn2nc(Sc3nnc4ccc(C(F)(F)F)cn34)ccc2n1)C1CC1`
100 to 249 nM

Then this molecule: `N#Cc1cc(-c2ccc3nnc(Sc4ccc5nc(NC(=O)C6CC6)cn5n4)n3c2)cnc1O`
8000 to 25000 nM

Then this molecule: CC(c1ccc2nc(NC(=O)C3CC3)cn2n1)c1nnc2ccc(-c3cn[nH]c3)cn12 (centres unmarked)
100 to 249 nM

Then this molecule: `O=C(Nc1cn2nc(Sc3nnc4ccc(Br)cn34)ccc2n1)C1CC1`
100 to 249 nM

Then this molecule: `Cn1cc(-c2ccc3nnc(C(F)(F)c4ccc5nc(N)cn5n4)n3c2)cn1`
100 to 249 nM
